Item-by-item account of % Cytotoxicity (CDC, Daudi), 0 hour
Experimental target: T1, human CD20 (human, UniProt P11836 1-297)
T1 sequence: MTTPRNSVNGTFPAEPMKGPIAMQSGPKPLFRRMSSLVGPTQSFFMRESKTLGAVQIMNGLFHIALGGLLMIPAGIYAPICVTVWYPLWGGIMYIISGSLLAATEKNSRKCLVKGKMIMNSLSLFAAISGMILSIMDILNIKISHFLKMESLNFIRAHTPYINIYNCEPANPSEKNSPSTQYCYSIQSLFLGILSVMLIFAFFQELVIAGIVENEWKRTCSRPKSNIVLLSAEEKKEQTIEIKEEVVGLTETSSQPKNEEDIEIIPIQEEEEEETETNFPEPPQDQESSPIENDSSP
Experimental details: cell-based or functional assay
Hi! Could you send only the number? It should be in %, unit omitted.

Known % Cytotoxicity (CDC, Daudi), 0 hour results, listed for orientation:
6B9-4 (antibody, V domains shown, Fully human IgG, constant region not specified; also called 6B9-4N) VH: EEQLVESGGDLVQPGRSLRLSCAASGFTFHDYTMHWVRQAPGKGLEWVSGISWNSGSIGYADSVKGRFTISRDNAKNSLYLQMNSLRIEDTALYYCAKDPSYGSGSYYYYYGMDVWGQGTTVTVSS VL: EIVLTQSPATLSLSPGERATLSCRASQSVSSYLVWYQQRPGQAPRLLIYEASNRATGIPARFSGSGSGTDFTLTISSLESEDFAVYYCQQRSNWPLTFGGGTKVEIK	98.1
rituximab (RITUXAN, IDEC Pharmaceuticals Corp.) (antibody, V domains shown) VH: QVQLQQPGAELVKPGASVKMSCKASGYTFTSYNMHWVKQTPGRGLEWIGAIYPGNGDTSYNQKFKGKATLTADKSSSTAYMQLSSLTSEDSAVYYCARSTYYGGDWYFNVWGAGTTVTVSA VL: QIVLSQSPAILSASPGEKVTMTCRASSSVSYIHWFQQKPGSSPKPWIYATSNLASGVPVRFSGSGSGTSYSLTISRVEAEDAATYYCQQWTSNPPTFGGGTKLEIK	91.9
10E3-17 (antibody, V domains shown, Fully human IgG, constant region not specified; also called 10E3-17N) VH: EVQLVESGGGLVQPGRSLRLSCAASGFTFRDYAMHWVRQVPGKGLEWVSGISWNRGTIGYADSVKGRFTISRDNAKNSLFLQMNSLRADDTALYYCAKDHYYGSGSPYGMDVWGQGTTVTVSS VL: EIVLTQSPATLALSPGERATLSCRASQSVSKYLAWYQQKPGQAPRLLIYDASKRVTGIPGRLSGSGSGTDFTLTISSLEPEDFALYYCQQSSNWPITFGQGTRVEIK	97
3H7-6 (antibody, V domains shown, Fully human IgG, constant region not specified; also called 3H7-6N) VH: EVQLVESGGGLVQPGRSLRLSCAASGFTFYDYAMHWVRQAPGKGLEWVSGISWNSGYIGYADSVKGRFTISRDNAKNSLYLQMNSLRAEDTALYYCAKDNSYGKFYYGLDVWGQGTTVTVSS VL: EIVMTQSPATLSVSPGERTTLSCRASQSVSSNLAWYLQKPGQAPRLLIYGASTRATGIPARFSGSGSGTEFILTISSLQSEDFAVYYCQQYNNWPITFGQGTRLEIK	97.5

If you can, please state the reported % Cytotoxicity (CDC, Daudi), 0 hour value of 6F6-1 (antibody, V domains shown, Fully human IgG, constant region not specified; also called 6F6-1N) VH: AVQLVESGGGLVQPGRSLRLSCAASGFTFRDYAMHWVRQGPGKGLEWVSGISWNTDYIGYADSVKGRFTISRDNAKNSLYLQMNSLRPEDTALYYCAKDARYGRDNYYGMDVWGQGTTVTVSS VL: EIVMTQSPATLSVSPGERATLSCRASQSVSHNLAWYQQKPGQAPRLLIYGAYTRATGIPDRFSGTGSGTEFTLTISSLQSEDFAVFYCQQYNNWPLTFGGGTKVEIK .
97.1
